Reported Test E disease control rating by item:
# Tested on: Botrytis cinerea
# MEASUREMENT NOTES: Test E: test suspension sprayed on tomato seedlings, inoculated next day with Botrytis cinerea (tomato Botrytis); visual disease rating (100 = 100% disease control, 0 = no control; dash = not tested)
# Format: in vivo
# RUN CONDITIONS: 250 ppm
# value in %; strip the unit string

Test E disease control rating for CCn1nc(-c2ccc(F)cc2Cl)c(-c2ccc(F)cc2Cl)cc1=O is 87

Given item CCn1nc(-c2cc(OC)cc(OC)c2)c(-c2c(F)cccc2F)c(Cl)c1=O , the value recorded as its Test E disease control rating is 90

Test E disease control rating measured on COc1cc(OC)cc(C2=NN(C)C(=O)CC2c2ccc(F)cc2Cl)c1 (stereo not shown) = 31

// recorded Test E disease control rating for COc1ccc(-c2nn(C)c(=O)cc2-c2c(F)cccc2F)c(F)c1 : 93

Lookup result for CCn1nc(-c2c(Cl)c(OC)cc(OC)c2Cl)c(-c2c(F)cccc2F)cc1=O ; measured Test E disease control rating: 0

More entries:
The reported value for Cn1nc(-c2cccc(F)c2Cl)c(-c2c(F)cccc2F)cc1=O in terms of Test E disease control rating is 100

# Test E disease control rating (compound: CCn1nc(-c2c(F)cccc2F)c(-c2c(F)cccc2F)cc1=O ) is 0

Recorded values, source patent US20230095836A1.
